ASSAY_COMMENT: Single-dose pharmacokinetic study, plasma and brain by LC-MS/MS
Type: in vivo, male Swiss-Webster mice
TEST_PARAMETERS: male, Swiss-Webster (CFW), mouse, brain; 10 mg/kg IP, throughout the measured time course; read-out: brain-to-plasma concentration ratio (Kp)
MEASUREMENT_KIND: Kp

Form field Kp, entry COc1ccccc1C1=CSc2nnc(COc3ccccc3)n2N1 : ~1

====

TARGET_OR_TEST_SYSTEM: human RGS14 RGS-box (wild-type) (Homo sapiens, UniProt O43566)
Construct: human RGS14 RGS-box (aa 46–195 of UniProt O43566); host or cells: E. coli
Sequence (O43566 46-195): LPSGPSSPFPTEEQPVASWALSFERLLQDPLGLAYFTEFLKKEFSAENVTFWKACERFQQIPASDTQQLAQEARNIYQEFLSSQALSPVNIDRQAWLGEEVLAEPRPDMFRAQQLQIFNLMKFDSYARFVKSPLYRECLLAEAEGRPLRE
ASSAY_COMMENT: Transcreener GDP RGScreen fluorescence polarization assay of RGS14 RGS-box GAP activity on Gαi1(DM)
Type: biochemical
TEST_PARAMETERS: values > 1.0 reflect RGS14 selectivity
Text: We previously described work with BellBrook Labs creating the Transcreener GDP RGScreen fluorescence polarization assay of steady-state GTP hydrolysis, leveraging a double point-mutant in the Gα enzyme to make GTP hydrolysis, rather than GDP (product) release, the rate-limiting step for multiple rounds of GTP conversion ([57], [59]). […]
MEASUREMENT_KIND: Ratio (RGS14 pIC50 / RGS12 pIC50)

Form field Ratio (RGS14 pIC50 / RGS12 pIC50), entry COc1ccc(OCc2nnc3n2N=C(c2cc(C)n(-c4nccs4)c2C)CS3)cc1 : 0.87

Form field Ratio (RGS14 pIC50 / RGS12 pIC50), entry CCOc1ccccc1-c1nnc2n1N=C(c1ccc(NC(=O)C(C)C)cc1)[C@@H](C)S2 : 0.92

Form field Ratio (RGS14 pIC50 / RGS12 pIC50), entry C1CC[C@H]2Sc3nnc([C@H]4CCCO4)n3N=C2C1 : 0.93

Form field Ratio (RGS14 pIC50 / RGS12 pIC50), entry O=C(O)CC1Sc2nnc(C3CC3)n2N=C1c1ccc(F)cc1 (stereo not shown) : 0.92

Form field Ratio (RGS14 pIC50 / RGS12 pIC50), entry Fc1ccccc1OCc1nnc2n1N=C(c1ccc(Cl)cc1)CS2 : 0.77

Form field Ratio (RGS14 pIC50 / RGS12 pIC50), entry O=C(O)CC1Sc2nnc(C3COc4ccccc4O3)n2N=C1c1cccs1 (stereo not shown) : 1.08

Form field Ratio (RGS14 pIC50 / RGS12 pIC50), entry FC(F)Oc1ccc(C2=Nn3c(COc4ccccc4)nnc3SC2)cc1 : 0.90

Form field Ratio (RGS14 pIC50 / RGS12 pIC50), entry CCN(CC)S(=O)(=O)c1cccc(-c2nnc3n2N=C(c2ccc(C)cc2)C(CC(=O)O)S3)c1 (stereo not shown) : 1.14

Form field Ratio (RGS14 pIC50 / RGS12 pIC50), entry O=C(O)C[C@@H]1Sc2nnc(CCC3CCCCC3)n2N=C1c1ccccc1 : 0.96

Form field Ratio (RGS14 pIC50 / RGS12 pIC50), entry Cc1ccc(C2=Nn3c(nnc3C3CC3)SC2CC(=O)O)cc1 (stereo not shown) : 0.85

Form field Ratio (RGS14 pIC50 / RGS12 pIC50), entry O=C(O)CC1Sc2nnc(C3CC3)n2N=C1c1ccccc1 (stereo not shown) : 0.92

Form field Ratio (RGS14 pIC50 / RGS12 pIC50), entry COc1ccc(Cc2nnc3n2N=C(c2ccccc2)C(C)S3)cc1OC (stereo not shown) : 0.90

Form field Ratio (RGS14 pIC50 / RGS12 pIC50), entry Cc1ccc(C2=Nn3c(COc4ccc(Cl)cc4)nnc3SC2CC(=O)O)cc1 (stereo not shown) : 1.00

Form field Ratio (RGS14 pIC50 / RGS12 pIC50), entry COc1ccccc1C1=CSc2nnc(COc3ccccc3)n2N1 : 0.86

Form field Ratio (RGS14 pIC50 / RGS12 pIC50), entry CSc1nnc2n1N=C(c1ccc(NC(=O)C(C)C)cc1)[C@H](C)S2 : 0.94

Form field Ratio (RGS14 pIC50 / RGS12 pIC50), entry O=C(O)C[C@@H]1Sc2nnc(-c3ccco3)n2N=C1c1ccccc1 : 1.00

Form field Ratio (RGS14 pIC50 / RGS12 pIC50), entry O=C(O)C[C@@H]1Sc2nnc(COc3ccc(Cl)cc3)n2N=C1c1ccccc1 : 0.94

Form field Ratio (RGS14 pIC50 / RGS12 pIC50), entry COc1ccc(OCc2nnc3n2N=C(c2cc4ccccc4o2)CS3)cc1 : 1.17

Form field Ratio (RGS14 pIC50 / RGS12 pIC50), entry CCCc1ccc(C2=Nn3c(COc4ccccc4F)nnc3SC2)cc1 : 0.96
